- test.protocol: physchem
- condition.info: octanol/water
Assign Condition met to entries whose logP meets or exceeds 5; assign Condition not met to the rest.

>  <molecule>
Clc1cc(-c2ccccc2)c(Cl)c(Cl)c1Cl

>  <discrete.label>
Condition met

$$$$
>  <molecule>
c1cc2ccc3ccc4ccc5cccc6c(c1)c2c3c4c56

>  <discrete.label>
Condition met

$$$$
>  <molecule>
Cc1cc(C)cc(C)c1

>  <discrete.label>
Condition not met

$$$$
>  <molecule>
Cc1ccc(C(C)C)cc1

>  <discrete.label>
Condition not met

$$$$

Incoming: Entry ClC=C(Cl)Cl : is its logP no less than 5?
Outgoing: Condition not met

Incoming: Entry c1ccc2c(c1)cc1ccc3cccc4ccc2c1c34 : is its logP no less than 5?
Outgoing: Condition met

Incoming: Entry CC1=C(/C=C/C(C)=C/C=C/C(C)=C/CO)C(C)(C)CC=C1 : is its logP no less than 5?
Outgoing: Condition met

Incoming: Entry BrCCBr : is its logP no less than 5?
Outgoing: Condition not met

Incoming: Entry CCc1ccccc1 : is its logP no less than 5?
Outgoing: Condition not met

Incoming: Entry c1ccc2c(c1)Cc1cc3ccccc3cc1-2 [BENZO[B]FLUORENE] : is its logP no less than 5?
Outgoing: Condition met

Incoming: Entry Cc1cc(C)c(C)c(C)c1C : is its logP no less than 5?
Outgoing: Condition met
